# System: adipocytes
# TEST_METHOD_NOTES: Triglyceride accumulation assay in adipocytes
# Type: cell-based, human
# MEASUREMENT_CONDITIONS: differentiating adipocytes transfected with oligomeric compound; Table 75
In the oligonucleotide strings, read from the 5' end, every base follows the letter of its sugar. An asterisk marks phosphorothioate; unmarked linkages are phosphodiester. Other units and linkages are bracketed, terminal groups are in braces. A string of capitals states the bases alone. e = 2'-O-(2-methoxyethyl) (MOE); [5mC] = 5-methylcytosine
Reported values of TG (triglyceride accumulation) for individual entries

>  <SUBSTANCE>
328129 (antisense eA*eG*e[5mC]*e[5mC]*eT*e[5mC]*e[5mC]*eT*eT*e[5mC]*eT*eT*e[5mC]*eT*e[5mC]*eG*eT*eA*e[5mC]*eT*eA) [compound 328129]

>  <TARGET_OR_SYSTEM>
adipocytes

>  <TG (triglyceride accumulation)>
19 percentage of untreated control (UTC)

$$$$
>  <SUBSTANCE>
328136 (eA*eA*e[5mC]*eT*eA*e[5mC]*eT*eT*e[5mC]*e[5mC]*eA*eG*eA*eG*e[5mC]*eA*eG*eG*eT*eG*eA; anti-miR) [compound 328136]

>  <TARGET_OR_SYSTEM>
adipocytes

>  <TG (triglyceride accumulation)>
26 percentage of untreated control (UTC)

$$$$
